IC50 values for the compounds below.
Test system: Neutrophil
Assay: Anti-inflammatory activity in human neutrophils assessed as inhibition of fMLP/CB-induced superoxide anion generation by measuring superoxide dismutase SOD-inhibitable ferricytochrome c reduction incubated for 5 mins before fMLP/CB stimulation for 3 mins by spectrophotometry
Type: functional, cell-based

- compound: "CC(=O)O[C@H]1CC[C@]2(C)[C@H]3CC=C4[C@@H]5CC(C)(C)CC[C@]5(C(=O)O)CC[C@@]4(C)[C@]3(C)CC[C@H]2C1(C)C"
  quantity.measured: "IC50"
  result: "> 10 µg/mL"
- compound: "C[C@@H]1O[C@@H](OC[C@H]2O[C@@H](OCCc3ccc(O)c(O)c3)[C@H](O)[C@@H](O)[C@@H]2OC(=O)/C=C/c2ccc(O)c(O)c2)[C@H](O)[C@H](O)[C@H]1O [FORSYTHIASIDE]"
  quantity.measured: "IC50"
  result: "1.4 µg/mL"

Kindly consider the entry below.
Please fill in: IC50 reported for CC(=O)O[C@H]1CC[C@]2(C)[C@H]3CCC4[C@@H]([C@@](C)(O)CCC=C(C)C)CC[C@@]4(C)[C@]3(C)CC[C@H]2C1(C)C (stereo partly drawn) = > 10 µg/mL

---

IC50 values for the compounds below.
Test system: Neutrophil
Experiment: Anti-inflammatory activity in human neutrophils assessed as inhibition of fMLP/CB-induced superoxide anion generation by measuring superoxide dismutase SOD-inhibitable ferricytochrome c reduction incubated for 5 mins before fMLP/CB stimulation for 3 mins by spectrophotometry
Type: functional, cell-based

Some compounds with recorded IC50:
- compound: "C/C(=C\\C(=O)O)CC[C@H]1C(CO)=CC[C@H]2[C@@](C)(CO)CCC[C@]12C"
  IC50: "8.3 µg/mL"
- compound: "CC1=C(CC/C(C)=C/C(=O)O)[C@@]2(C)CCC[C@@](C)(CO)[C@@H]2CC1=O"
  IC50: "> 10 µg/mL"
- compound: "COC1CC[C@@](C)([C@H]2CC[C@]3(C)[C@@H]2CC[C@@H]2[C@@]4(C)CCC(OC(C)=O)C(C)(C)[C@@H]4CC[C@]23C)O1 (some centres undefined)"
  IC50: "> 10 µg/mL"

Kindly consider the entry below.
Please fill in: IC50 reported for "O=C(Cc1ccc(O)cc1)OC[C@H]1CC[C@@H]2C(C(=O)O)=CO[C@@H](O[C@@H]3O[C@H](CO)[C@@H](O)[C@H](O)[C@H]3O)[C@H]12" = > 10 µg/mL

---

System: Neutrophil
Assay: Anti-inflammatory activity in human neutrophils assessed as inhibition of fMLP/CB-induced elastase release pre-incubated for 5 mins before fMLP/CB stimulation using MeO-Suc-Ala-Ala-Pro-Val-pnitroanilide as substrate
Format: functional, cell-based
quantity.measured: IC50

Some compounds with recorded IC50:
- compound: "C[C@@H]1O[C@@H](OC[C@H]2O[C@@H](OCCc3ccc(O)c(O)c3)[C@H](O)[C@@H](O)[C@@H]2OC(=O)/C=C/c2ccc(O)c(O)c2)[C@H](O)[C@H](O)[C@H]1O [FORSYTHIASIDE]"
  result: "> 10 µg/mL"
- compound: "C=C(C)[C@@H]1CC[C@]2(C(=O)O)CC[C@]3(C)C(CCC4[C@@]5(C)C[C@@H](O)[C@H](O)C(C)(C)C5CC[C@]43C)C12 (stereo not given in full)"
  result: "1.9 µg/mL"
- compound: "C=C1CC[C@H]2[C@@](C)(COC=O)CCC[C@]2(C)[C@H]1CC/C(C)=C\\C(=O)O"
  result: "> 10 µg/mL"
- compound: "O=C(Cc1ccc(O)cc1)OC[C@H]1CC[C@@H]2C(C(=O)O)=CO[C@@H](O[C@@H]3O[C@H](CO)[C@@H](O)[C@H](O)[C@H]3O)[C@H]12"
  result: "> 10 µg/mL"
- compound: "C=C1CCC2[C@@](C)(CO)CCC[C@]2(C)[C@H]1CC/C(C)=C/C(=O)O (stereo not given in full)"
  result: "> 10 µg/mL"
- compound: "CNC(=O)c1cc(Oc2ccc(NC(=O)Nc3ccc(Cl)c(C(F)(F)F)c3)cc2)ccn1 [SORAFENIB]"
  result: "0.9 µg/mL"

Please fill in: IC50 reported for COc1cc([C@H]2OC[C@H]3[C@@H]2CO[C@H]3c2ccc(OC)c(OC)c2)ccc1O [PHILLYGENIN] = > 10 µg/mL

Please fill in: IC50 reported for COc1cc(C[C@H]2COC(=O)[C@@H]2Cc2ccc(O)c(OC)c2)ccc1O [MATAIRESINOL] = 7.3 µg/mL

// data source = ChEMBL document CHEMBL4184133
